- System: UniProt:P08908
- Sequence (P08908 whole entry): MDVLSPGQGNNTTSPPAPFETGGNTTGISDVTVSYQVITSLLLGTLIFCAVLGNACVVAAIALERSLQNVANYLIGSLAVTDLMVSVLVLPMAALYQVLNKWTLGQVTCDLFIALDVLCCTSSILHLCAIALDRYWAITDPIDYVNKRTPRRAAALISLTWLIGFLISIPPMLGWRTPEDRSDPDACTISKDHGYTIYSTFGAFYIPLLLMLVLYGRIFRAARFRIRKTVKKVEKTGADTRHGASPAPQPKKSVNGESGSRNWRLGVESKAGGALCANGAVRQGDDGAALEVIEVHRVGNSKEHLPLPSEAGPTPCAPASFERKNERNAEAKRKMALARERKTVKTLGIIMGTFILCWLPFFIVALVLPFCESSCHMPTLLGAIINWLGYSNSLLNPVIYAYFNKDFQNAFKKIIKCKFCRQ
- Method description: Displacement of [3H]8-OH-DPAT from human recombinant 5HT1A receptor expressed in CHO cells
Value kind: EC50 (µM)
Answers are plain numbers, in µM.

# count of solved cases: 2
[
  {
    "Smiles representation": "COc1cc2c(cc1O)C[C@H]1c3c(cc(OC)c(OC)c3-2)CCN1C",
    "EC50, µM": 0.16
  },
  {
    "Smiles representation": "COc1cc2c(cc1O)[C@@H]1Cc3cc4c(cc3[C@H](C2)N1C)OCO4",
    "EC50, µM": 9
  }
]

Okay, now this molecule:
Prompt: Name the recorded EC50 for CN1[C@H]2Cc3cc4c(cc3[C@@H]1Cc1cc3c(cc12)OCO3)OCO4 .
Response: 11
